Source of measurements: patent US20170008928A1

In this section, each of the compounds is paired with its reported CCK-1R selectivity (EC50 (CCK-2R)/EC50 (CCK-1R)).
- measuredTarget: human cholecystokinin-1 receptor (CCK-1R) (Homo sapiens, UniProt P32238)
- Construct: host or cells: 1321-N1 cells
- Sequence (P32238 1-428): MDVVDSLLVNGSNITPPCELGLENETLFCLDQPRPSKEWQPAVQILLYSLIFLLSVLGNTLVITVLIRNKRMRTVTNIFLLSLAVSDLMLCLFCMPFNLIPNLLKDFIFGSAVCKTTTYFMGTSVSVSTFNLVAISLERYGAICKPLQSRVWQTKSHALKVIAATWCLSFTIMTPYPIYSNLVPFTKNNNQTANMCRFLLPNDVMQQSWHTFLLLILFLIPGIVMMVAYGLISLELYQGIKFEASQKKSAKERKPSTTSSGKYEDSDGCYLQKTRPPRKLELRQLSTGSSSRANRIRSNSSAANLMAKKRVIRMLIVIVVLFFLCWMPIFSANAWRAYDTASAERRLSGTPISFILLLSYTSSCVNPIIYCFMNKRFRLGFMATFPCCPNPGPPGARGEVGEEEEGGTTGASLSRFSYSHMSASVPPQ
- testProtocol: In vitro potency on CCK-1R, whole cell functional assay (IP1 accumulation, IP-One HTRF)
- Format: cell-based
- conditionInfo: ratio of functional EC50 values; >1 = preference for CCK-1R
Starred links: 1 amine or outer side, 2 acyl side, 3 side chain; linkers in the order of their positions; H or OH if unused. Non-standard residues stand in square brackets, D forms with d. Residues, ends and D or L forms follow the SMILES beside them. *: point of attachment. sY = N[C@@H](Cc1ccc(OS(=O)(=O)O)cc1)C(=O)O; C18 diacid = O=C(O)CCCCCCCCCCCCCCCCC(=O)*; γGlu = O=C(O)[C@H](CCC(=O)[*:2])N[*:1]; 1Nal = N[C@@H](Cc1cccc2ccccc12)C(=O)O; NMeF = CN[C@@H](Cc1ccccc1)C(=O)O; dNMeD = CN[C@H](CC(=O)O)C(=O)O; Nle = CCCC[C@H](N)C(=O)O; AEEA = NCCOCCOCC(=O)O
Quick one: just the number, no unit, thanks!

These solved cases illustrate the format of a correct answer.
>  <compound>
CCCC[C@H](NC(=O)[C@H](Cc1c[nH]c2ccccc12)NC(=O)CNC(=O)[C@H](C)NC(=O)[C@H](Cc1ccc(OS(=O)(=O)O)cc1)NC(=O)[C@H](CC(=O)O)NC(=O)COCCOCCNC(=O)COCCOCCNC(=O)CC[C@H](NC(=O)CCCCCCCCCCCCCCCCC(=O)O)C(=O)O)C(=O)N(C)[C@H](CC(=O)O)C(=O)N(C)[C@@H](Cc1ccccc1)C(N)=O [Example 46] ({C18 diacid-γGlu-AEEA-AEEA}-D[sY]AGW[Nle][dNMeD][NMeF]-NH2)

>  <reported>
440

$$$$
>  <compound>
CCCC[C@H](NC(=O)[C@H](Cc1c[nH]c2ccccc12)NC(=O)CNC(=O)[C@H](CC(C)C)NC(=O)[C@H](Cc1ccc(OS(=O)(=O)O)cc1)NC(=O)[C@H](CC(=O)O)NC(=O)[C@H](CO)NC(=O)[C@H](CO)NC(=O)CNC(=O)[C@H](CO)NC(=O)[C@H](CO)NC(=O)CNC(=O)CCCCCCCCCCCCCCCCC(=O)O)C(=O)N(C)[C@H](CC(=O)O)C(=O)N(C)[C@@H](Cc1ccccc1)C(N)=O [Example 29] ({C18 diacid}-GSSGSSD[sY]LGW[Nle][dNMeD][NMeF]-NH2)

>  <reported>
28

$$$$
>  <compound>
CCCC[C@H](NC(=O)[C@H](Cc1ccc(OS(=O)(=O)O)cc1)NC(=O)[C@@H](N)CC(=O)O)C(=O)NCC(=O)N[C@@H](Cc1c[nH]c2ccccc12)C(=O)N[C@@H](CCCC)C(=O)N(C)[C@H](CC(=O)O)C(=O)N[C@@H](Cc1cccc2ccccc12)C(N)=O [Example 54] (H-D[sY][Nle]GW[Nle][dNMeD][1Nal]-NH2)

>  <reported>
2100

$$$$

Please tell me: CCK-1R selectivity (EC50 (CCK-2R)/EC50 (CCK-1R)) of CCCC[C@H](NC(=O)[C@H](Cc1c[nH]c2ccccc12)NC(=O)CNC(=O)[C@H](Cc1ccccc1)NC(=O)[C@H](Cc1ccc(OS(=O)(=O)O)cc1)NC(=O)[C@H](CC(=O)O)NC(=O)COCCOCCNC(=O)COCCOCCNC(=O)CC[C@H](NC(=O)CCCCCCCCCCCCCCCCC(=O)O)C(=O)O)C(=O)N(C)[C@H](CC(=O)O)C(=O)N(C)[C@@H](Cc1ccccc1)C(N)=O [Example 44] ({C18 diacid-γGlu-AEEA-AEEA}-D[sY]FGW[Nle][dNMeD][NMeF]-NH2) , system human cholecystokinin-1 receptor (CCK-1R) (Homo sapiens, UniProt P32238)? 960
